biological target: human CD33 A289S (human, UniProt P20138 18-364); test: alanine scan, flow cytometry, HEK293-T;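 also: antibody binding to each alanine-substituted CD33 mutant expressed transiently in HEK293-T, read as fluorescence minus background, mean of duplicates, relative to wild-type CD33 set as 100%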
Sequence (P20138 18-364 A289S limits assumed): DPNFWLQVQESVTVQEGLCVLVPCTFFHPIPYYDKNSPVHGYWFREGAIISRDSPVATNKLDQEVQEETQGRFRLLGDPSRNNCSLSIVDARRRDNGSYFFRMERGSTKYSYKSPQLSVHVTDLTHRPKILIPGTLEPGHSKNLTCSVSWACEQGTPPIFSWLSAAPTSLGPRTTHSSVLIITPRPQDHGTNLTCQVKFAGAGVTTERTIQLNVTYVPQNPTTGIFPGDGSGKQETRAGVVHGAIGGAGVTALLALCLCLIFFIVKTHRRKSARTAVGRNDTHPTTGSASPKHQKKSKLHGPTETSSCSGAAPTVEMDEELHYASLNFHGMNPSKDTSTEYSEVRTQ
measuredEndpoint: Mean % WT Binding (% WT binding)
Answer format: numeric, % WT binding implied, no suffix.

Value of Mean % WT Binding reported for the binder Refmab #2 (antibody, V domains shown, The alanine scan used IgG or Fab) VH: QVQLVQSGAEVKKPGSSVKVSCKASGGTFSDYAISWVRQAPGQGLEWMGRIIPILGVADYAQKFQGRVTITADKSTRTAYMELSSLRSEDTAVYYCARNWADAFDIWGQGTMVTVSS VL: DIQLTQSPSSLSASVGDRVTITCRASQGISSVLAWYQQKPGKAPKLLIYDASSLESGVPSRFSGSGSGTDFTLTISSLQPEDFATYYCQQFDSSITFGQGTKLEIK is 111

binder Refmab #1 (antibody, V domains shown, The alanine scan used IgG or Fab; also called hP67.6) VH: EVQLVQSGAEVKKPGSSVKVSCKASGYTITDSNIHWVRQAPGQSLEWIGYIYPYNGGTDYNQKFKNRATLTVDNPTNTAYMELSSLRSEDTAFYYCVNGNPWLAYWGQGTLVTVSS VL: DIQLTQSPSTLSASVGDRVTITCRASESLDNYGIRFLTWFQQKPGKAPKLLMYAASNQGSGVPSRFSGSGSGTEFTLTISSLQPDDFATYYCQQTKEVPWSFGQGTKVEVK , Mean % WT Binding observed: 97.1

Mean % WT Binding recorded for this binder, Refmab #3 (antibody, V domains shown, The alanine scan used IgG or Fab) VH: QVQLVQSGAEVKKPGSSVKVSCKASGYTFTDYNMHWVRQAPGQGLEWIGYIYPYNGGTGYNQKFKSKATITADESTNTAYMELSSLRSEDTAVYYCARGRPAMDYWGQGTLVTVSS VL: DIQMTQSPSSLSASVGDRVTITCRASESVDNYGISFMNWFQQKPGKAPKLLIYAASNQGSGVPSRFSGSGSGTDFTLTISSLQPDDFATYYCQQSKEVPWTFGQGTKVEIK , is 82.8

The reported Mean % WT Binding of the binder Refmab #4 (antibody, V domains shown, The alanine scan used IgG or Fab) VH: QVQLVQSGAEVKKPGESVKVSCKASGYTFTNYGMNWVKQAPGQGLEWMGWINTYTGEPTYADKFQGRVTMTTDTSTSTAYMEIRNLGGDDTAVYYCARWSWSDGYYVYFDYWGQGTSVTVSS VL: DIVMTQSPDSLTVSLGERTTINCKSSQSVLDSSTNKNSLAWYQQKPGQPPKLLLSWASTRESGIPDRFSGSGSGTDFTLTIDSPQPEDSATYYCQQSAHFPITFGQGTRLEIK was 95
